biological target: GPR139 (Homo sapiens); assay: calcium mobilization assay (FLIPR), GPR139 transiently expressed in HEK293 cells; assay type: cell-based; set-up: expressed in transfected cells; host or cells: HEK293; conditions: HEK293; calcium mobilization at 300 μM as percentage of that observed for L-phenylalanine; read-out: % L-phenylalanine at 300 μM (average)
quantity kind: activation at 300 µM (%)
Answer in %, number only, no unit symbol.

Worked set:
Cc1ccccc1C[C@H](N)C(=O)O [2-Methyl-L-phenylalanine] ... 134
N[C@H](Cc1ccc(F)cc1)C(=O)O [4-Fluoro-D-phenylalanine] ... 91
N[C@@H](Cc1cccc([N+](=O)[O-])c1)C(=O)O [3-Nitro-L-phenylalanine] ... 131
N[C@H](Cc1ccc(Cl)cc1)C(=O)O [4-Chloro-D-phenylalanine] ... 110
N[C@H](Cc1cccc([N+](=O)[O-])c1)C(=O)O [3-Nitro-D-Phenylalanine] ... 164

Entry CC(C)(C)OC(=O)N1Cc2ccccc2C[C@@H]1C(=O)O has what activation at 300 µM?
155

Entry N[C@H](Cc1ccc(I)cc1)C(=O)O [4-Iodo-D-phenylalanine] has what activation at 300 µM?
125

----------
target: GPR139 (Homo sapiens, UniProt Q6DWJ6); assay: GTPγS binding assay, membranes from COS7 cells co-expressing GPR139 and GO2Q, single concentration screen; assay type: biochemical; set-up: expressed in transfected cells; host or cells: COS7; details: 1 mM
quantity kind: activation of GPR139 in GTPγS binding assay (in words)

Worked set:
NCCc1c[nH]c2ccccc12 [Tryptamine, tryptamine] ... activated GPR139
NCCc1ccccc1 [β-phenylethylamine] ... activated GPR139
CC(N)Cc1ccccc1 (centres unmarked) [Amphetamine, amphetamine] ... activated GPR139
N[C@@H](Cc1ccccc1)C(=O)O [L-Phe, L-phenylalanine] ... able to activate GPR139

We now examine a further compound.
Entry N[C@@H](Cc1c[nH]c2ccccc12)C(=O)O [L-Trp, L-tryptophan] has what activation of GPR139 in GTPγS binding assay (in words)?
able to activate GPR139

----------
Molecular target: GPR139 (Homo sapiens)
Sequence (Q6DWJ6 1-353): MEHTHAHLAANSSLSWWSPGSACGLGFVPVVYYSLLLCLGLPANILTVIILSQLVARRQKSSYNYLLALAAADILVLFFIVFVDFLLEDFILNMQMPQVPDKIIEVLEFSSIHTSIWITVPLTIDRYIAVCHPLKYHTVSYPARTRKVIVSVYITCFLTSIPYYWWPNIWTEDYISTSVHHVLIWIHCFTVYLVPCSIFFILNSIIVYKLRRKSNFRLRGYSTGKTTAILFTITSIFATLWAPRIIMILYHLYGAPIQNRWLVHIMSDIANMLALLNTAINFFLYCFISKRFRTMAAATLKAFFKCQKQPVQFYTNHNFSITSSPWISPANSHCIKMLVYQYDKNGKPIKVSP
Experiment: calcium mobilization assay (FLIPR), GPR139 transiently expressed in HEK293 cells
Type: cell-based
Set-up: expressed in transfected cells; host or cells: HEK293
Conditions: calcium mobilization at 300 μM as percentage of that observed for L-phenylalanine
Overview of reported % L-phenylalanine at 300 μM (average) across a group of molecules:
Answer in %, number only, no unit symbol.

Worked set:
O=C(O)[C@@H]1Cc2c([nH]c3ccccc23)CN1 ... 151
N[C@H](Cc1ccc(Br)s1)C(=O)O [2-(5-bromothienyl)-D-alanine] ... 154
N[C@@H](Cc1ccc(Br)s1)C(=O)O [2-(5-bromothienyl)-L-alanine] ... 151

We now examine a further molecule.
Entry N[C@H](CCc1ccccc1)C(=O)O [d-Homo-phenylalanine] has what % L-phenylalanine at 300 μM (average)?
105

----------
Biological target: GPR139 (Homo sapiens)
Sequence (Q6DWJ6 1-353): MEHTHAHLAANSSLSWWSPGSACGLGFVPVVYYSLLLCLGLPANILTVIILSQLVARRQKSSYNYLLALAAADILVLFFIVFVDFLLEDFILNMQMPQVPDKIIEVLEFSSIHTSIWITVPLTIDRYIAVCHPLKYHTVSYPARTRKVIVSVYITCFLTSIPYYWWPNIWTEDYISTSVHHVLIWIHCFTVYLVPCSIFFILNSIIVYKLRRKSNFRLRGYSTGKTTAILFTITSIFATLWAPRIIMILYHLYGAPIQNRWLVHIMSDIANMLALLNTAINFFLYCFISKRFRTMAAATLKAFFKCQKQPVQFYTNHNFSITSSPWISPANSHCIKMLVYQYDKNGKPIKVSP
Assay: calcium mobilization assay (FLIPR), GPR139 transiently expressed in HEK293 cells
Assay type: cell-based
Design: expressed in transfected cells; host or cells: HEK293
Conditions: HEK293; calcium mobilization at 300 μM as percentage of that observed for L-phenylalanine; read-out: % L-phenylalanine at 300 μM (average)
From the text: For these experiments human GPR139 was transiently expressed in HEK293 cells and calcium mobilization was stimulated using L-Trp, L-Phe or their derivatives.
quantity kind: activation at 300 µM (%)
Answer in %, number only, no unit symbol.

Worked set:
N[C@@H](Cc1ccccc1C(F)(F)F)C(=O)O ... 110
C[C@](N)(Cc1ccc(F)cc1)C(=O)O ... 125

Entry N[C@@H](Cc1cccc(Cl)c1)C(=O)O has what activation at 300 µM?
145

Entry N[C@@H](Cc1cccc(Br)c1)C(=O)O has what activation at 300 µM?
167

Entry Cc1cccc(C[C@@H](N)C(=O)O)c1 has what activation at 300 µM?
150

----------
biological target: GPR139 (Homo sapiens); assay: calcium mobilization assay (FLIPR), GPR139 transiently expressed in HEK293 cells; assay type: cell-based; design: expressed in transfected cells; host or cells: HEK293; details: HEK293; calcium mobilization at 300 μM as percentage of that observed for L-phenylalanine; read-out: % L-phenylalanine at 300 μM (average)
quantity kind: activation at 300 µM (%)
Answer in %, number only, no unit symbol.

Worked set:
N[C@H](Cc1cc(F)cc(F)c1)C(=O)O ... 102
N[C@@H](Cc1cccc(F)c1)C(=O)O ... 114
COc1ccc(C[C@H](N)C(=O)O)cc1 ... 128
N[C@@H](Cc1ccc(C(F)(F)F)cc1)C(=O)O ... 150
Cc1ccc(C[C@@H](N)C(=O)O)c(C)c1 ... 101
N#Cc1cccc(C[C@@H](N)C(=O)O)c1 ... 93

Requested read-out activation at 300 µM, target or system GPR139 (Homo sapiens), entry Cc1ccc(C[C@H](N)C(=O)O)cc1
149

Requested read-out activation at 300 µM, target or system GPR139 (Homo sapiens), entry N[C@H](Cc1c(F)c(F)c(F)c(F)c1F)C(=O)O
145

Requested read-out activation at 300 µM, target or system GPR139 (Homo sapiens), entry N[C@H](CCCc1ccccc1)C(=O)O
129

----------
Overview of reported activation at 300 µM across a group of compounds:
target: GPR139 (Homo sapiens, UniProt Q6DWJ6); test: calcium mobilization assay (FLIPR), GPR139 transiently expressed in HEK293 cells; assay type: cell-based; parameters: expressed in transfected cells; host or cells: HEK293; conditions: HEK293; calcium mobilization at 300 μM as percentage of that observed for L-phenylalanine; read-out: % L-phenylalanine at 300 μM (average)
Answer in %, number only, no unit symbol.

Cc1ccccc1C[C@@H](N)C(=O)O ... 109
N[C@@H](Cc1cccc(C(F)(F)F)c1)C(=O)O ... 133
N[C@H](Cc1ccccc1Br)C(=O)O ... 135
N[C@@H](Cc1ccccc1[N+](=O)[O-])C(=O)O ... 150
N[C@@H](Cc1ccc(F)cc1)C(=O)O ... 132
N[C@@H](Cc1ccc(Cl)c(Cl)c1)C(=O)O ... 149
Cc1cccc(C[C@H](N)C(=O)O)c1 ... 147
N[C@H](Cc1ccc(F)c(F)c1)C(=O)O ... 121

We now examine a further compound.
Entry CC(C)(C)c1ccc(C[C@H](N)C(=O)O)cc1 has what activation at 300 µM?
115

----------
Overview of reported activation at 300 µM across a group of compounds:
biological target: GPR139 (Homo sapiens); assay: calcium mobilization assay (FLIPR), GPR139 transiently expressed in HEK293 cells; format: cell-based; parameters: expressed in transfected cells; host or cells: HEK293; conditions: HEK293; calcium mobilization at 300 μM as percentage of that observed for L-phenylalanine; read-out: % L-phenylalanine at 300 μM (average)
Answer in %, number only, no unit symbol.

N[C@H](Cc1cccc(Br)c1)C(=O)O ... 172

Requested read-out activation at 300 µM, target or system GPR139 (Homo sapiens), entry Cc1ccc(C[C@@H](N)C(=O)O)cc1
102

Requested read-out activation at 300 µM, target or system GPR139 (Homo sapiens), entry N[C@@H](Cc1ccccc1Br)C(=O)O
168

Requested read-out activation at 300 µM, target or system GPR139 (Homo sapiens), entry N[C@@H](Cc1ccc(I)cc1)C(=O)O
116

Requested read-out activation at 300 µM, target or system GPR139 (Homo sapiens), entry N[C@H](Cc1ccc(Cl)cc1Cl)C(=O)O
135

Requested read-out activation at 300 µM, target or system GPR139 (Homo sapiens), entry N#Cc1cccc(C[C@H](N)C(=O)O)c1
115

Requested read-out activation at 300 µM, target or system GPR139 (Homo sapiens), entry N[C@H](Cc1ccc(Cl)c(Cl)c1)C(=O)O
149
